// provenance: patent US20240351996A1

- SYSTEM_NAME: CDK19/CycC (Homo sapiens)
- PROTOCOL_NOTES: LanthaScreen europium kinase binding assay (FRET displacement), CDK19
- DETAILS: CDK19/CDK8 selectivity based on IC50 values
REPORTED_PROPERTY: CDK19 Selectivity

molecule=O=C(c1ccncc1)c1cnc(Nc2ccc(F)cc2)nc1 reported_property="CDK19 Selectivity" recorded_measurement=1.9

(a) CC(C)Cc1ccc(Nc2ncc(Nc3ccncc3Cl)cn2)c(F)c1
(b) CC(C)Cc1ccc(Nc2ncc(Nc3ccncc3OC3CCCCC3)cn2)cc1
Lower value for measured CDK19 Selectivity? Options: a , b Bench note: the answer is the label of the chosen record.
b
(b: 0.8, a: 2)

* * *

- SYSTEM_NAME: CDK19/CycC (Homo sapiens, UniProt Q9BWU1)
- Sequence (Q9BWU1 whole entry): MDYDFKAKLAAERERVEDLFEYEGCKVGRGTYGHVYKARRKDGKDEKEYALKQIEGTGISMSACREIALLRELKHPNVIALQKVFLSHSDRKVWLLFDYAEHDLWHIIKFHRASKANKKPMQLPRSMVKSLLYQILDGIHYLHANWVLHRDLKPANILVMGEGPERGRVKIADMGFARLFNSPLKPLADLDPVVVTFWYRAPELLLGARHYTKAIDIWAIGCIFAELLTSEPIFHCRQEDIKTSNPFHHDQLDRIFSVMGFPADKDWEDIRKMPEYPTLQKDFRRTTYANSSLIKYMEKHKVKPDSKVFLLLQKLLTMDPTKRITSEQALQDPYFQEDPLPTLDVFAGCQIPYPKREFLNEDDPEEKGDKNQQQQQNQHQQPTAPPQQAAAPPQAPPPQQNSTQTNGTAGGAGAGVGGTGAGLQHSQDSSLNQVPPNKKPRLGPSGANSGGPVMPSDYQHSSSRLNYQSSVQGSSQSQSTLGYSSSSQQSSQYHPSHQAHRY
- Sequence (P24863 whole entry partner): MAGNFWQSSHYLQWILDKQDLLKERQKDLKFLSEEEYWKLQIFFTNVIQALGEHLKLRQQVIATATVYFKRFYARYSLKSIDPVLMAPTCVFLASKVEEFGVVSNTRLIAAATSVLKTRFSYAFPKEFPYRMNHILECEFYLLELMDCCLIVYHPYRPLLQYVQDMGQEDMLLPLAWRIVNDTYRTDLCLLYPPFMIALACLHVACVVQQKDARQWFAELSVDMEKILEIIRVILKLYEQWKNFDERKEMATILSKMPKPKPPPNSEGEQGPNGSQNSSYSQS
- PROTOCOL_NOTES: LanthaScreen europium kinase binding assay (FRET displacement), CDK19
- DETAILS: CDK19/CDK8 selectivity based on IC50 values
REPORTED_PROPERTY: CDK19 Selectivity

The following molecules have reported results that may help.
molecule="FC(F)C(F)(F)Oc1ccc(Nc2ncc(Nc3ccncc3)cn2)cc1 [Compound A19]" system_name="CDK19/CycC (Homo sapiens, UniProt Q9BWU1)" reported_property="CDK19 Selectivity" recorded_measurement=4.2
molecule="Cc1cc(Nc2cnc(Nc3cccc(CC(C)C)c3)nc2)ccn1 [Compound A29]" system_name="CDK19/CycC (Homo sapiens, UniProt Q9BWU1)" reported_property="CDK19 Selectivity" recorded_measurement=2
molecule="CC(C)Cc1ccc(Nc2ncc(C(=O)c3cccnc3)cn2)cc1 [Compound A133]" system_name="CDK19/CycC (Homo sapiens, UniProt Q9BWU1)" reported_property="CDK19 Selectivity" recorded_measurement=3

(1) Cc1nc(Nc2ccc(CC(C)C)cc2)ncc1Nc1ccncc1 [Compound A6]
(2) c1cc(Nc2cnc(Nc3ccc(C4CC4)cc3)nc2)ccn1 [Compound A16]
Sorting by CDK19 Selectivity in descending order, would 1 or 2 appear first? Bench note: the answer is the label of the chosen record.
1
(1: 5.5, 2: 2.8)

* * *

- SYSTEM_NAME: CDK19/CycC (Homo sapiens)
- PROTOCOL_NOTES: LanthaScreen europium kinase binding assay (FRET displacement), CDK19
- DETAILS: CDK19/CDK8 selectivity based on IC50 values
- Experimental: FRET Displacement Assay to Measure IC50: The CDK19/CDK8 IC50 values were measured to evaluate activity and to determine CDK19/CDK8 selectivity. The IC50 values of the disclosed compounds was measured using a LanthaScreen™ europium kinase binding assay (ThermoFisher), as described herein. […]
REPORTED_PROPERTY: CDK19 Selectivity

The following compounds have reported results that may help.
compound=Cc1cnccc1Nc1cnc(Nc2ccc(CC(C)C)cc2)nc1C recorded_measurement=1.3
compound=Cc1cccc(-c2cnc(Nc3ccc(CC(C)C)cc3)nc2)c1 recorded_measurement=9
compound=c1cc(Nc2cnc(Nc3ccc(C4CCC4)cc3)nc2)ccn1 recorded_measurement=2

(a) Cc1cc(Nc2cnc(Nc3ccc(CC(C)C)cc3)nc2)ccn1 [Compound A8]
(b) Cc1cnccc1Nc1cnc(Nc2ccc(C3CCCCC3)cc2)nc1
Lower value for measured CDK19 Selectivity? Options: a , b Bench note: the answer is the label of the chosen record.
b

* * *

- SYSTEM_NAME: CDK8 (Homo sapiens, UniProt P49336)
- Sequence (P49336 whole entry): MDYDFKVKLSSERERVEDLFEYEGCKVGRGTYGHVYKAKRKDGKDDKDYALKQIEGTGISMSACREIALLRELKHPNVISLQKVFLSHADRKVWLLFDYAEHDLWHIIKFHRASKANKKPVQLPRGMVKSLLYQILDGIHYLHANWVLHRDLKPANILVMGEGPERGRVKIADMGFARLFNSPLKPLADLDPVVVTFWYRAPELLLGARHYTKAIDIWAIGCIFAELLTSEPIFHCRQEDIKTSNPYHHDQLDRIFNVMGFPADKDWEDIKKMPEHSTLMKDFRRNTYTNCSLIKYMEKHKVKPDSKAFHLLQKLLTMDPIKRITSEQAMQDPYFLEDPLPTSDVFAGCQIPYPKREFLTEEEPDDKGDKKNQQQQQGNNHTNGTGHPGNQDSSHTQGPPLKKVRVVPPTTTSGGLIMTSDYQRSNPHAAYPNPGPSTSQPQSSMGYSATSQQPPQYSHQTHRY
- Sequence (P24863 whole entry partner): as the sequence (P24863 whole entry partner) above
pIC50: −log10 of the molar value.
REPORTED_PROPERTY: pIC50

The following compounds have reported results that may help.
molecule_smiles=CC(C)Oc1ccc(Nc2ncc(Nc3ccncc3C(F)(F)F)cn2)cc1 reported_property=pIC50 recorded_measurement=8.52
molecule_smiles=CC(C)Cc1ccc(Nc2ncc(Nc3ccncc3Cl)cn2)cc1 reported_property=pIC50 recorded_measurement=8.52
molecule_smiles=CC(C)Cc1ccc(Nc2ncc(Nc3ccncc3F)cn2)cc1 reported_property=pIC50 recorded_measurement=7.57
molecule_smiles=Cc1cc(-c2cnc(Nc3ccc(CC(C)C)cc3)nc2)cc(C)n1 reported_property=pIC50 recorded_measurement=5.42
molecule_smiles=CC(C)Cc1ccc(Nc2ncc(C(=O)Nc3ccncc3)cn2)cc1 reported_property=pIC50 recorded_measurement=5.03

(1) CC(C)Cc1ccc(Nc2ccc(C(=O)c3ccncc3F)cn2)cc1
(2) FC(F)C(F)(F)Oc1ccc(Nc2ncc(Nc3ccncc3)cn2)cc1
Lower value for measured pIC50? Options: 1 , 2 Bench note: the answer is the label of the chosen record.
1

(1) CC(C)Cc1ccc(Nc2ncc(Nc3ccncc3C(=O)NC3CCCC3)cn2)cc1
(2) Cc1cnccc1Nc1cnc(Nc2ccc(OC(C)C)cc2F)nc1
Lower value for measured pIC50? Options: 1 , 2 Bench note: the answer is the label of the chosen record.
2
(2: 6.44, 1: 6.75)

(I) CC(C)Cc1ccc(Nc2ncc(C(=O)c3ccncc3OC3CCCC3)cn2)cc1
(II) CC(C)Cc1ccc(Nc2ncc(C(=O)c3ccncc3OC3CCCC3)cn2)c(F)c1
(III) CCCc1ccc(Nc2ncc(Nc3ccnc(C)c3)cn2)cc1
(IV) FC(F)(F)c1cc(Nc2ncc(Nc3ccncc3)cn2)cc(C(F)(F)F)c1
(V) COc1cc(Nc2cnc(Nc3cccc(CC(C)C)c3)nc2)ccn1
Order field: pIC50 | Direction: descending (largest first) Write the labels, ordered according to the request.
I, II, III, V, IV
(I: 8.15, II: 7.89, III: 6.51, V: 5.54, IV: 5.20)

(1) CCOc1ccc(Nc2ncc(Nc3ccncc3C(F)(F)F)cn2)cc1
(2) CC(C)Cc1ccc(Nc2ccc(Oc3ccncc3)cn2)cc1
Lower value for measured pIC50? Options: 1 , 2 Bench note: the answer is the label of the chosen record.
2

(a) CC(C)Cc1ccc(Nc2ncc(-c3cccc(C#N)c3)cn2)cc1
(b) Cc1ccc2nccc(Nc3cnc(Nc4ccc(CC(C)C)cc4)nc3)c2c1
Sorting by pIC50 in descending order, would a or b appear first? Bench note: the answer is the label of the chosen record.
b

* * *

- PROTOCOL_NOTES: Liver microsome stability assay (Cyprotex), human
- Format: in vitro ADME
- DETAILS: human liver microsomes
- Description: Microsome Assay to Measure Stability: The stability of the compounds was evaluated using a liver cell microsome assay commercially available from Cyprotex (Watertown, MA) (https://www.cyprotex.com/admepk/in-vitro-metabolism/microsomal-stability).
Below is a list of entries, each paired with its recorded Human Microsome Stability value.
Entry rule: numbers only, all in μL/min/mg protein.

The following compounds have reported results that may help.
compound="CC(C)Cc1ccc(Nc2ncc(Nc3ccnc4ccccc34)cn2)cc1 [Compound A11]" unit_of_measurement="μL/min/mg protein" recorded_measurement=28.7
compound="Cc1cnccc1Nc1cnc(Nc2ccc(CC(C)C)cc2)nc1 [Compound A21]" unit_of_measurement="μL/min/mg protein" recorded_measurement=159.0
compound="c1cc(Nc2cnc(Nc3ccc(C4CCC4)cc3)nc2)ccn1 [Compound A39]" unit_of_measurement="μL/min/mg protein" recorded_measurement=7.6

Turning now to a further record.
Need Human Microsome Stability, item CC(C)Cc1ccc(Nc2ncc(Nc3ccncc3OC3CCCC3)cn2)cc1 [Compound A53]
36

* * *

- SYSTEM_NAME: CDK19/CycC (Homo sapiens)
- PROTOCOL_NOTES: LanthaScreen europium kinase binding assay (FRET displacement), CDK19
- DETAILS: CDK19/CDK8 selectivity based on IC50 values
REPORTED_PROPERTY: CDK19 Selectivity

The following compounds have reported results that may help.
compound=Cc1ccc(C#N)cc1-c1cnc(Nc2ccc(CC(C)C)cc2)nc1 recorded_measurement=2
compound=CC(C)Cc1ccc(Nc2ncc(Nc3ccncc3C#Cc3ccccc3)cn2)cc1 recorded_measurement=5
compound="CC(C)Cc1ccc(Nc2ncc(C(F)(F)c3ccncc3)cn2)cc1 [Compound A161]" recorded_measurement=2
compound=CC(C)Cc1ccc(Nc2ncc(C(=O)c3ccncc3Cl)cn2)cc1 recorded_measurement=1.8
compound=CC(C)Cc1ccc(Nc2ncc(-c3ccncc3)cn2)cc1 recorded_measurement=5.6
compound=CC(C)Cc1ccc(Nc2ccc(Nc3ccncc3)cn2)cc1 recorded_measurement=3.8
compound="CC(C)Cc1ccc(Nc2ncc(Nc3ccncc3)cn2)cc1 [Compound A5]" recorded_measurement=3

(A) FC(F)(F)Oc1ccc(Nc2ncc(Nc3ccncc3)cn2)cc1
(B) Cc1cnccc1Nc1cnc(Nc2ccc(OC(C)C)cc2F)nc1
Sorting by CDK19 Selectivity in descending order, would A or B appear first? Bench note: the answer is the label of the chosen record.
B
(B: 4, A: 2)

* * *

- Tested on: MDA-MB-231 TNBC cells
- PROTOCOL_NOTES: Triple-negative breast cancer cell death assay (LD50)
- Type: cell-based
- DETAILS: MDA-MB-231, 48 h treatment, live cell counts normalized to DMSO
REPORTED_PROPERTY: MDA LD50 (nM)
Entry rule: numbers only, all in nM.

compound="CC(C)Cc1ccc(Nc2ncc(Nc3ccncc3OC3CCCC3)cn2)cc1 [Compound A53]" recorded_measurement=91
compound="c1cc(Nc2cnc(Nc3ccc(C4CCC4)cc3)nc2)ccn1 [Compound A39]" recorded_measurement=158
compound="CC(C)Cc1ccc(Nc2ncc(Nc3ccnc4ccccc34)cn2)cc1 [Compound A11]" recorded_measurement=180

Turning now to a further record.
Need MDA LD50, item Cc1cnccc1Nc1cnc(Nc2ccc(CC(C)C)cc2)nc1 [Compound A21]
178
